Tested on: KBV200 cells (KBV200细胞)
Protocol Details: MTT cytotoxicity test: growth inhibition of KBV200 cells by single agents
Type: cell-based, human
Condition Details: Homo sapiens, KBv200; single agent, 72 h (discussion)
Endpoint Name: IC50 (µM)
Give bare numbers, in µM.

# count of solved cases: 2
# Compound, Reading Unit, IC50
records = [
    ("CC1CCC2C(C)C(O)OC3OC4(C)CCC1C32OO4 (stereo not drawn)", "µM", 11.2),
    ("C[C@@H]1CC[C@H]2[C@@H](C)C(=O)O[C@@H]3O[C@@]4(C)CC[C@@H]1[C@]32OO4", "µM", 172),
]

// query Fill in: IC50 of `C[C@H]1[C@H](OC(=O)CCC(=O)O)O[C@@H]2O[C@@]3(C)CC[C@H]4[C@H](C)CC[C@@H]1[C@@]24OO3` is ___
// result 1.47
